- TARGET ENTITY: Peptidylglycine alpha-amidating monooxygenase (Rattus norvegicus) (UniProt P14925)
- Sequence (whole entry): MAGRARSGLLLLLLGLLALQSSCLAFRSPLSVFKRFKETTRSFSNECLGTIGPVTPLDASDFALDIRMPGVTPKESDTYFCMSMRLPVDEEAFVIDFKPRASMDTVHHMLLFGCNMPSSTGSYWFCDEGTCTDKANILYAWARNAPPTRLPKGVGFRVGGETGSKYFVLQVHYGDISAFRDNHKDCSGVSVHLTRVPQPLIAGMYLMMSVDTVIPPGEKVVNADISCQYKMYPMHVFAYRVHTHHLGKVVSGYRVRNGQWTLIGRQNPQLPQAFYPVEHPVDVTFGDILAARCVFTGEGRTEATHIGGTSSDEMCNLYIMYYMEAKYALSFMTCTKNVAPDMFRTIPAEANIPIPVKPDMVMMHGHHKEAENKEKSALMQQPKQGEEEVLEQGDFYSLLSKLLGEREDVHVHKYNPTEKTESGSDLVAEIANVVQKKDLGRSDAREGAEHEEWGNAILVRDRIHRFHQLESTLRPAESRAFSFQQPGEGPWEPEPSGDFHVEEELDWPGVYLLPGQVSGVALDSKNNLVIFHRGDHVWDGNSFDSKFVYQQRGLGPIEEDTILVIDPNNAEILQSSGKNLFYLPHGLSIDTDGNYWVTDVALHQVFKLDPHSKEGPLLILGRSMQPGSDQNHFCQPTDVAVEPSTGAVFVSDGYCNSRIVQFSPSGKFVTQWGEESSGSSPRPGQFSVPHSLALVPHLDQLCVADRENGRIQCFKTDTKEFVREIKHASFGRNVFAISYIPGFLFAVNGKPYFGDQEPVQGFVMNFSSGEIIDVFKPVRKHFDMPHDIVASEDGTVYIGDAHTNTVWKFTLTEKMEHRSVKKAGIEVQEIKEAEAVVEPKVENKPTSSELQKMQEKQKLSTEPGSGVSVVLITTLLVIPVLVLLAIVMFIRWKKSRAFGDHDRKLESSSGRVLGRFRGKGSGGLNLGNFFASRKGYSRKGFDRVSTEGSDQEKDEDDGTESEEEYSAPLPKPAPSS
- PROTOCOL DESCRIPTION: Ratio of Vm(app) to Km(app) for rat recombinant peptidylglycine alpha-amidating monooxygenase relative to hippuric acid
Where a SMILES comes first, the peptide text is derived from it. The star is where a group is joined. Bz = O=C(c1ccccc1)*
Recorded Activity for the following compounds
RECORDED ENDPOINT: Activity

>>> number("O=C(O)CNC(=O)c1cccc(Cl)c1")
0.6
>>> number("O=C(O)CNC(=O)c1ccccc1O")
1.1
>>> number("CC(=O)NCC(=O)O")
0.1
>>> number("O=C(O)CNC(=S)CCc1ccccc1")
6.8
>>> number("O=C(O)CNC(=O)c1ccccc1I")
0.1
>>> number("O=C(O)CNC(=O)CNC(=O)CNC(=O)c1ccccc1 (Bz-Gly-Gly-Gly-OH)")
4.7
>>> number("Nc1ccc(C(=O)NCC(=O)O)cc1")
0.4

These entries and their values trace back to ChEMBL document CHEMBL1151692.
